TARGET ENTITY: F-actin (rabbit skeletal muscle actin, ADP-actin filaments) (rabbit, UniProt P68135 1-377)
EXPERIMENT DESCRIPTION: co-sedimentation; dilution series of ABD mixed with an equal volume of 4 μM F-actin, 30 min at room temperature, 20 mM HEPES pH 8.0, 150 mM NaCl, 1 mM DTT; pelleted at 140,717 x g for 20 min at 4°C; Coomassie bands quantified; fit with a Hill coefficient (W859A: one site-specific binding)
MEASUREMENT CONTEXT: both partners purified
pKd: −log10 of the molar value.
Quick rule for you: pKd at 6 or higher means t, lower means f.

For this binder, is measured pKd 6 or higher? αE-catenin ABD 671–872 (domain or fragment) AIMAQLPQEQKAKIAEQVASFQEEKSKLDAEVSKWDDSGNDIIVLAKQMCMIMMEMTDFTRGKGPLKNTSDVISAAKKIAEAGSRMDKLGRTIADHCPDSACKQDLLAYLQRIALYCHQLNICSKVKAEVQNLGGELVVSGVDSAMSLIQAAKNLMNAVVQTVKASYVASTKYQKSQGMASLNLPAVSWKMKAPEKKPLVKR f

From: paper PMC7588230
